Entry source: ChEMBL document CHEMBL3885861

organism: Rattus norvegicus; assay: Open TG-GATES - Regimen: Daily Repeat; format: toxicity, organism-based, Sprague-Dawley; parameters: regimen Daily Repeat, gender Male, age 6 weeks; conditions: in vivo, po, 0 mg/kg, […], tissue Kidney, route gavage, dose level Control, time 28 day
PARAMETER MEASURED: KIDNEY_TOTAL (g)

[
  {
    "COMPOUND": "COC(=O)C1=C(C)NC(C)=C(C(=O)OC)C1c1ccccc1[N+](=O)[O-] [NIFEDIPINE]",
    "PARAMETER MEASURED": "KIDNEY_TOTAL",
    "RECORDED VALUE": 2.7
  },
  {
    "COMPOUND": "CCCc1cc(=O)[nH]c(=S)[nH]1 [PROPYLTHIOURACIL]",
    "PARAMETER MEASURED": "KIDNEY_TOTAL",
    "RECORDED VALUE": 2.6
  },
  {
    "COMPOUND": "Nc1c2c(nc3ccccc13)CCCC2 [TACRINE]",
    "PARAMETER MEASURED": "KIDNEY_TOTAL",
    "RECORDED VALUE": 2.9
  }
]

---

Parameter: BUN. Scope: all listed entries.
species on record: Rattus norvegicus; assay: Open TG-GATES - Regimen: Single; type: toxicity, organism-based, Sprague-Dawley; set-up: regimen Single, gender Male, age 6 weeks; conditions: in vivo, po, 300 mg/kg, 9 h, tissue Plasma, route gavage, dose level Middle
PARAMETER MEASURED: BUN (mg/dL)

[
  {
    "MOLECULE": "O=C(OC[C@H]1O[C@@H](OC(=O)c2cc(O)c(O)c(OC(=O)c3cc(O)c(O)c(O)c3)c2)[C@H](OC(=O)c2cc(O)c(O)c(OC(=O)c3cc(O)c(O)c(O)c3)c2)[C@@H](OC(=O)c2cc(O)c(O)c(OC(=O)c3cc(O)c(O)c(O)c3)c2)[C@@H]1OC(=O)c1cc(O)c(O)c(OC(=O)c2cc(O)c(O)c(O)c2)c1)c1cc(O)c(O)c(OC(=O)c2cc(O)c(O)c(O)c2)c1 [TANNIC ACID]",
    "PARAMETER MEASURED": "BUN",
    "RECORDED VALUE": 12.6
  },
  {
    "MOLECULE": "Cc1nnc2n1-c1ccc(Cl)cc1C(c1ccccc1Cl)=NC2 [TRIAZOLAM]",
    "PARAMETER MEASURED": "BUN",
    "RECORDED VALUE": 10
  }
]

---

species on record: Rattus norvegicus; experiment: Open TG-GATES - Regimen: Daily Repeat; format: toxicity, organism-based, Sprague-Dawley; parameters: regimen Daily Repeat, gender Male, age 6 weeks; conditions: in vivo, po, 300 mg/kg, 72 h, tissue Plasma, route gavage, dose level Middle, time 3 day
Kindly apply the following: Yes if AST is less than 70 IU/L, No in every other case.

[
  {
    "MOLECULE": "CN/C(=N/CCSCc1nc[nH]c1C)NC#N [CIMETIDINE]",
    "ASSIGNED CATEGORY": "Yes"
  },
  {
    "MOLECULE": "O=C(OC[C@H]1O[C@@H](OC(=O)c2cc(O)c(O)c(OC(=O)c3cc(O)c(O)c(O)c3)c2)[C@H](OC(=O)c2cc(O)c(O)c(OC(=O)c3cc(O)c(O)c(O)c3)c2)[C@@H](OC(=O)c2cc(O)c(O)c(OC(=O)c3cc(O)c(O)c(O)c3)c2)[C@@H]1OC(=O)c1cc(O)c(O)c(OC(=O)c2cc(O)c(O)c(O)c2)c1)c1cc(O)c(O)c(OC(=O)c2cc(O)c(O)c(O)c2)c1 [TANNIC ACID]",
    "ASSIGNED CATEGORY": "Yes"
  },
  {
    "MOLECULE": "CCOc1ccc(NC(C)=O)cc1 [PHENACETIN]",
    "ASSIGNED CATEGORY": "Yes"
  },
  {
    "MOLECULE": "Cc1nnc2n1-c1ccc(Cl)cc1C(c1ccccc1Cl)=NC2 [TRIAZOLAM]",
    "ASSIGNED CATEGORY": "No"
  },
  {
    "MOLECULE": "CNC(=C[N+](=O)[O-])NCCSCc1ccc(CN(C)C)o1 [RANITIDINE]",
    "ASSIGNED CATEGORY": "No"
  }
]
